So I've got a bunch of compounds here, and I need their bioavailability values.
# assay_protocol: Oral bio availability in mouse
# Type: ADME, organism-based
# assay_conditions: in vivo
Answer with a number only, understood to be in %.

For the compound Cc1cc(NCc2c(Cl)cccc2Cl)c2cccc(C(N)=O)c2n1 , what bioavailability is on record?
34

Another: Cc1cc(NCc2c(F)ccc(Cl)c2Cl)c2cccc(C(N)=O)c2n1
64

Another: Cc1cc(NCc2c(C)cccc2C)c2cccc(C(N)=O)c2n1
32

Another: Cc1cc(NCc2c(Cl)ccc(Cl)c2Cl)c2cccc(C(N)=O)c2n1
17

Another: Cc1cc(NCc2cccc(Cl)c2Cl)c2cccc(C(N)=O)c2n1
35

Another: Cc1cc(NCc2ccccc2C(F)(F)F)c2cccc(C(N)=O)c2n1
18

Another: Cc1cc(NCc2c(F)cccc2C(F)(F)F)c2cccc(C(N)=O)c2n1
35

Another: Cc1cc(NCc2c(C)cccc2Cl)c2cccc(C(N)=O)c2n1
32

Data provenance: ChEMBL document CHEMBL3603832
